# Lookup of reported Expression (luminescence from secreted Gluc protein) keyed by entry
Test system: HEK293 cells
Format: cell-based, human
Details: circular RNA encoding Gluc with the listed IRES (UTR truncated to 675 nt) transfected into HEK293 cells; supernatant after 24 hours

molecule	reported_value
Antarctic penguin virus A (nucleic acid, chemistry not fully specified; the letters are possibly those of the target site) DNA: CTAGGAGACTACGCAGTGGGATAAGATGACTATGATGTCGTACGGGCAGAAGCCAGTACAGTCGAAGTCGAGACCGACGTCGAGGATTTGACTCTGCCTGACCTAGTGCCATC	8.42E+04

Turning now to a further record.
May I ask what Expression (luminescence from secreted Gluc protein) has been recorded for Rodent pegivirus (nucleic acid, listed as Pegivirus sp., lipid formulation) DNA: GGACTTCGGTCCCCCTGTTACTCTGCGAGCCACCGCAGAGCCAGGGTTGGTACGCCCGAGGTGTTAGACCCCGGCCGAAAGCTCCTAACCATGGGGTTAGTAGGACGTGGTAAATGCCACTGAGGGGTTGGAGAGCTGGTAGAGCGAGTAAGTCGGCGTAAGGCCCGAGTACGGGCCTCCCAGCCCGGGTCAGCCTAAACCTGGCTGTGATACCCGGTGCATGGAGGGCGTGTCCCAACGCTCGATCGCTGTAGGGTGGGTCCCTGCAGTTGGGTGTGGCTACCCTGCTCGTACTGCTTGATAGAGTCCCGGCGGACGGACCAGCTCTCGTCAGTCCGTGGAGTTGCAC ?
1.79E+05

Data origin: patent US20240245805A1
